- measurement-notes: protein stability index of a GFP-peptide fusion (GPS, HEK-293T) (PSI 1-6); higher = more stable;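 also: 24-mer peptide tiles fused after GFP, lentivirally expressed, FACS-sorted into six equal bins by GFP/DsRed ratio, decoded by Illumina sequencing, PSI is the read-weighted mean bin number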
- particulars: treatment: MLN4924 1 uM, 8 h; c terminus: a fixed tail appended
This listing pairs sequences with measured protein stability index.
Response field accepts a number only; no unit should be typed.

Answered cases to consult:
# entry-sequence, experimental-value
rows = [
    ("MLGRLGYLNHVRAASPQDLAGGYT [MNAT1]", 2.59),
    ("VTLKTAVDGPDLEMLTGQERVALA [FKBP8]", 3.81),
    ("IELAPLSMPRINHGVLSAEGFLFV [GAN]", 2.81),
    ("MPIPEDLSTTSGGQQSSKSDRVVA [IKZF1]", 5.39),
    ("AEEAEDHGRIPDPDDFVPPVPPPS [FAM189A2]", 5.51),
]

Fill blank: measured protein stability index of the sequence REQEKKPKKEANQAPKSKSGSRPR [LRRC59] is ____.
5.3

Fill blank: measured protein stability index of the sequence HFDVLPTEFTLGDDKHYGGFTNKQ [PTPRD] is ____.
4.47

====

- measurement-notes: protein stability index of a GFP-peptide fusion (GPS, HEK-293T) (PSI 1-6); higher = more stable
- particulars: treatment: MLN4924 1 uM, 8 h; c terminus: native
measured-metric: protein stability index
Response field accepts a number only; no unit should be typed.

Answered cases to consult:
# entry-sequence, protein stability index
measured = [
    ("ILKIRHGWEDVTKINKTEICSQL [STEAP1]", 2.2),
    ("AQNDLDISRIKRGNTTLESTDTL [P2RY14]", 5.25),
    ("LCPCLRSGIGSSQALGPSPPLFG [MYCL]", 2.11),
    ("AAAHASVDIKDVLDFYKQWKEIG [SMG5]", 3.54),
    ("LFAGPHSTLTPPCSPPEDGLCPH [SNX8]", 3.85),
]

// next item, protein stability index requested
Fill blank: measured protein stability index of the sequence YQGGPPRPPMGMRPPVMSQGGRY [ZNF207] is ____.
2.84

====

- measurement-notes: protein stability index of a GFP-peptide fusion (GPS, HEK-293T) (PSI 1-6); higher = more stable
- particulars: treatment: DMSO; c terminus: a fixed tail appended
This listing pairs sequences with measured protein stability index.

# entry-sequence, experimental-value
data = [
    ("NQQIHEQEKKILELEKLAEKNIIL [MTUS2]", 4.13),
    ("LSASSPRMLHRSTQTTNDGVCQSM [ZMYND11]", 4),
]

Fill blank: measured protein stability index of the sequence SFRRNVGRVLLANSTQADEGKTKK [FBXO34] is ____.
4.71

Fill blank: measured protein stability index of the sequence SAVEGAPPARPRPRSPECRMIPGQ [IRX6] is ____.
4.86

Fill blank: measured protein stability index of the sequence GPALWLRSTCVYVCALSALPAGPL [PLEKHN1] is ____.
2.98

Fill blank: measured protein stability index of the sequence SFVLKNFPALLSTGEFLKLPFERL [KLHL13] is ____.
1.94

Fill blank: measured protein stability index of the sequence IAENGVSERDSEAAKQNHVTADDF [EHMT1] is ____.
5.39

Fill blank: measured protein stability index of the sequence MVRSVAWAGFMVLLMIPWGSAAKL [CHIT1] is ____.
3.13

Fill blank: measured protein stability index of the sequence LKLKNKLLQADREHLPVKPDTMEK [DENND6A] is ____.
4.35

Fill blank: measured protein stability index of the sequence PPQPGCPAFIIVKLSPLRDRLVVT [ZSWIM9] is ____.
2.93

Fill blank: measured protein stability index of the sequence EKRPLFLAPDFDRWLDESDAEMEL [HACD3] is ____.
4.45

Fill blank: measured protein stability index of the sequence SGLIQTVFISSYMVLAPVFGYLGD [SPNS1] is ____.
3.5

Fill blank: measured protein stability index of the sequence VFGTSLTARVIIPLLKDEGFAVKA [GFOD1] is ____.
2.7

Fill blank: measured protein stability index of the sequence VEAVKNELRRQAPPPPPPSRGGPP [WASL] is ____.
4.91

Fill blank: measured protein stability index of the sequence ESVEQLESRIVEQENAIQTMELRN [SNX8] is ____.
5.41

Fill blank: measured protein stability index of the sequence CTRFTDEYQLYEDIGKGAFSVVRR [CAMK2B] is ____.
2.84

Fill blank: measured protein stability index of the sequence CEVPTCSLCKVFGAHKDCQVAPLT [TRIM55] is ____.
3.58

Fill blank: measured protein stability index of the sequence RFLANEVLQENYTHLPKADIFALA [WEE1] is ____.
2.27

Fill blank: measured protein stability index of the sequence DSNMPHFQTLQAIVSHFQKLFDVP [CEP70] is ____.
2.38

Fill blank: measured protein stability index of the sequence VDCTEIFGGNPRFLSLHRAHLGEE [ZNF263] is ____.
3.11

Fill blank: measured protein stability index of the sequence PTPQVDELDILPIHPPSGNSDLDP [BTBD10] is ____.
5.54
